Kindly supply the reported EC50 values for the records listed here.
# System: RSV (Group A, Long Strain)
# Assay overview: Cytopathetic effect (CPE) protection antiviral assay, MTT readout
# Type: cell-based
# Assay setup: human respiratory syncytial virus, HEp-2, 96 h, read-out: RSV EC50
Structures can show the parent of a compound that is named as a salt.

Q: Need EC50, item Cc1ccccc1N/C(=N/C#N)N1CCN(c2cnc3ccccc3n2)CC1C(C)C (stereo not shown) [Example 1.3, trifluoroacetate]
A: 250 nM

Q: Another compound to check: Cc1ccccc1N/C(=N/C#N)N1CCN(c2cnc3ccccc3n2)C[C@@H]1C(C)C [Example 1.13, trifluoroacetate]
A: 200 nM

Q: Another compound to check: Cc1ccccc1N/C(=N/C#N)N1CCN(c2cnc3ccccc3n2)C[C@H]1C(C)C [Example 1.12, trifluoroacetate]
A: > 32000 nM

Q: Another compound to check: Cc1ccccc1NC(=NC#N)N1CCN(c2cnc3ccccc3n2)CCC1C(C)C (stereo not shown)
A: > 32000 nM
